Tested on: human vulvar fibroblasts
Assay name: In vitro LPV model: SPM pre-treatment of patient vestibular/vulvar fibroblasts before inflammatory stimulation, IL-6 and PGE2 by ELISA/EIA
Type: cell-based
Assay conditions: pre-treated 10 hours with 5 nM SPM, then IL-1β 10 pg/ml 48 hr; vestibular and external vulvar fibroblasts; FIG. 5A
Observation type: prostaglandin E2 (PGE2) production

                                   molecule            measurement
0  CCCCC[C@H](O)/C=C/C=C\C=C\C=C\[C@@H](O)[C@@H](O)CCCC(=O)O [Lipoxin A4]  significantly reduced
1  CC/C=C\C/C=C\C[C@H](O)\C=C/C=C/C=C/[C@@H](O)C/C=C\CCC(=O)O [epi-Maresin 1]  significantly reduced
2  CC/C=C\C[C@H](O)[C@H](O)/C=C/C=C/C=C\C=C\[C@@H](O)C/C=C\CCC(=O)O [Resolvin D2]  significantly reduced
3  CC/C=C\C/C=C\C[C@H](O)\C=C/C=C/C=C/[C@H](O)C/C=C\CCC(=O)O [Maresin 1]  significantly reduced
